- Assay procedure: chemical genetic growth profiling, strain panel (AID 1159580);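 note: tested at 20 µM; growth read once vehicle control cultures reached saturation at 30 °C; 1 = growth at the plate median or of vehicle wells; lower values mean less growth of the strain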
- Test parameters: S. cerevisiae deletion strains, growth OD, locus YNL183C, strain NPR1, stronger effect = lower value
In all, about 5,500 compounds went through this assay and about 2,000 (36%) were called active. About 18% were inconclusive and are not listed. This is one part of the list.
Reported property: normalized growth
Numbers only.

Consider the worked cases shown below.
• COc1ccc(C[C@H]2NC[C@H](O)[C@H]2OC(C)=O)cc1 = 0.97
• CC(C)[C@H](N)C(=O)OCCOCn1cnc2c(=O)[nH]c(N)nc21 = 0.946
• CCCCCC(=O)O[C@]1(C(C)=O)CCC2C3CCC4=CC(=O)CC[C@]4(C)C3CC[C@@]21C (stereo not given in full) = 0.965

Look up normalized growth for the entries below, preserving their order.
1. CC(=O)OCC(CCn1cnc2cnc(N)nc21)COC(C)=O
2. CC(=O)O[C@]1(C(C)=O)CCC2C3C[C@H](C)C4=CC(=O)CC[C@]4(C)C3CC[C@@]21C (stereo not given in full)

[0.959, 0.951]
